Tested on: SF-539 CNS
assay_summary: NCI-60 one-dose screen, 48 h
applied_conditions: 10 µM unless noted
Experimental: Cells are grown in 96 well plates and exposed to the test compound for 48 hours. Compounds are tested at a single concentration, which is 10^-5 M for most compounds. The reported endpoint is percent growth (GI% or GIPRCNT), where numbers from 0 - 100% represent growth inhibition, and numbers from -100% - 0 represent cell death. For example, a value of 40 represents 60% growth inhibition. A value of 0 means no net growth occurred over the course of the experiment. […]
This is part of a sample that, as a whole, favours compounds with a hit. Of some 83,000 tested, about 20% had one in any assay. Calls of active or inactive are those of the source. Rule for the calls: active = growth percent below 10; inactive = the rest.
Hi there, use one of these labels in your reply, thanks! True for active, False for inactive

{"columns": ["compound", "label_class"],
 "data": [
  ["C=C(C)[C@@H]1CC[C@]2(c3ncc(C)o3)CC[C@]3(C)[C@H](CC[C@@H]4[C@@](C)(CCC#N)[C@H](C(=C)C)CC[C@]43C)[C@@H]12", "True"]
]}

IN: Kindly provide the recorded test outcome for the following compound: O=C1/C(=C\c2cccn2Cc2ccccc2)c2ccccc2N1c1c(Cl)cccc1Cl
OUT: False

IN: Kindly provide the recorded test outcome for the following compound: CN(C)CCOc1ccc(/C(=C(/CCCl)c2ccccc2)c2ccccc2)cc1
OUT: True

IN: Kindly provide the recorded test outcome for the following compound: O=C(NCCCNC(=O)OCc1ccc2c(Br)cc(Br)c(O)c2n1)OCc1ccc2c(Br)cc(Br)c(O)c2n1
OUT: True

IN: Kindly provide the recorded test outcome for the following compound: O=C1/C(=C/c2cccc(OCc3ccccc3)c2)Oc2cc(OCCN3CCCCC3)ccc21
OUT: False

IN: Kindly provide the recorded test outcome for the following compound: Cn1cc(-c2nnc(-c3cn(C)c4ncc(Br)cc34)s2)c2cc(Br)ccc21
OUT: False

IN: Kindly provide the recorded test outcome for the following compound: CSc1nc2c(c(=O)n1C)C1(C(=O)N(Cc3ccccc3)c3ccccc31)c1c(nc(SC)n(C)c1=O)N2
OUT: False

IN: Kindly provide the recorded test outcome for the following compound: COC(=O)c1cc(O)c2c(c1C(=O)OC)C[C@H]1[C@@H]3CC=C4C[C@@H](O)CC[C@]4(C)[C@H]3CC[C@]21C
OUT: True

IN: Kindly provide the recorded test outcome for the following compound: CCOc1ccccc1/C=N\Nc1ccc(S(=O)(=O)c2ccc(N/N=C/c3ccccc3OCC)cc2)cc1
OUT: False

IN: Kindly provide the recorded test outcome for the following compound: CCOC(=O)c1c[nH]c2cc(OCC3CC3)c(OCC3CC3)cc2c1=O
OUT: False

IN: Kindly provide the recorded test outcome for the following compound: COc1cc(OC)c(/C=C/C(=O)c2c(N)cc(OC)cc2OC)c(OC)c1
OUT: True

IN: Kindly provide the recorded test outcome for the following compound: C[N+](C)(C)c1ncnc2[n-]cnc12
OUT: False

IN: Kindly provide the recorded test outcome for the following compound: CCCCC(CCCCCC(CCCC)C1NC(C)Cc2cc(OC)c(OC)cc21)C1NC(C)Cc2cc(OC)c(OC)cc21 (stereo not drawn)
OUT: True

IN: Kindly provide the recorded test outcome for the following compound: COC(=O)[C@@H](NC(=O)NC(=O)NC(=O)CI)C(C)C
OUT: False

IN: Kindly provide the recorded test outcome for the following compound: O=C(NCc1ccc(Cn2c(=O)sn(-c3ccccc3)c2=O)cc1)OCc1ccc2c(Br)cc(Br)c(O)c2n1
OUT: True

IN: Kindly provide the recorded test outcome for the following compound: O=C(NCc1ccccc1)C(Cl)Cl
OUT: False

IN: Kindly provide the recorded test outcome for the following compound: CC[C@]12C=CCN3CC[C@@]4(c5ccc(OC)cc5N(C)[C@H]4[C@@](O)(C(=O)OC)[C@@H]1OC(=O)CCC(=O)N[C@H](Cc1c[nH]c4ccccc14)C(=O)OC)[C@@H]32
OUT: True

IN: Kindly provide the recorded test outcome for the following compound: COc1ccc(-c2cc(-c3ccccc3)nc(NCCNc3ccnc4cc(Cl)ccc34)n2)cc1
OUT: True

Measured values drawn from PubChem BioAssay (NCI) for this set.
